meta.source: ChEMBL document CHEMBL5113483

- PROCEDURE_SUMMARY: Stability of compound in TRIS buffer at pH 7.4 assessed as compound remaining measured after 60 hrs by HPLC analysis
- Format: physicochemical
- TEST_PARAMETERS: read-out: Stability
RECORDED_ENDPOINT: remaining at 60 h (%)
Report as a plain number; the unit % is understood.

Give its remaining at 60 h value. Item: C=C(C)[C@@H]1CC[C@]2(C(=O)OCCOC(=O)CCC(=O)OCc3cn(C)c4c3C(=O)C(OC)=CC4=O)CC[C@]3(C)[C@H](CC[C@@H]4[C@@]5(C)CC[C@H](O)[C@@](C)(CO)[C@@H]5CC[C@]43C)[C@@H]12
80
